# assayedTarget: T1, rhPD-L1-Fc (human, UniProt Q9NZQ7 19-239, limits assumed)
# T1 construct: Recombinant human PD-L1-Fc coated on ELISA plates; not shown: Fc part
# T1 sequence (Q9NZQ7 19-239 limits assumed): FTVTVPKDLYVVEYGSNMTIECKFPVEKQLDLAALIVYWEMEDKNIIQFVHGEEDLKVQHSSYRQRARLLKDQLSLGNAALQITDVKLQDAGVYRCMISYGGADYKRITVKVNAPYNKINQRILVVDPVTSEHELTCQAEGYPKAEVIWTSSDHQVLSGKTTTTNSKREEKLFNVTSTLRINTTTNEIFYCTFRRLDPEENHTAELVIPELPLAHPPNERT
# assayInfo: competition ELISA: plate-bound rhPD-L1-Fc, antibody titrated, competitor rhCD80-His detected
Property: EC50; scope: individual binders
propertyMeasured: EC50 (µg/mL)

>>> reportedresult("antibody A25 (antibody, V domains shown, Derived from a mutagenesis screen of A1; Tested as full-length antibody; also called L25H25) VH: QVQLVQSGAEVKKPGASVKVSCKASGFTFTSYDINWVRQATGQGLEWMGWMHPKSGITGYAQKFQGRVTMTRNTSISTAYMELSNLSSEDTAVYFCARYNYVSGSYDYWGQGTLVTVSS VL: EIVMTQSPATLSLSPGERATLSCWASQSVSSSYLSWYQQKPGQAPRLLIYGASTRATGIPARFSGSGSGTDFTLTISSLQPEDFAVYYCQQDYYLPYTFGQGTKLEIK")
0.26
>>> reportedresult("antibody A1 (antibody, V domains shown, Tested as full-length mAb made in CHO cells; also called L1H1) VH: QVQLVQSGAEVKKPGASVKVSCKASGFTFTSYDINWVRQATGQGLEWMGWMHPNSGITGYAQKFQGRVTMTRNTSISTAYMELSSLSSEDTAVYFCARYYYVSGSYDYWGQGTLVTVSS VL: EIVMTQSPATLSLSPGERATLSCWASQSVSSSYLSWYQQKPGQAPRLLIYGASTRATGIPARFSGSGSGTDFTLTISSLQPEDFAVYYCQQDYNLPYTFGQGTKLEIK")
0.4
>>> reportedresult("antibody A4 (antibody, V domains shown, Tested as full-length mAb made in CHO cells; also called L4H4) VH: QVQLVESGGGVVQPGRSLRLSCAASGFTFSNYGMHWVRQAPGKGLEWVAVIWFDGNTKYYTDSVKGRFTISRDNSKNTLYLQMNSLRAEDTAVYYCARDITMVPMDVWGQGTTVTVSS VL: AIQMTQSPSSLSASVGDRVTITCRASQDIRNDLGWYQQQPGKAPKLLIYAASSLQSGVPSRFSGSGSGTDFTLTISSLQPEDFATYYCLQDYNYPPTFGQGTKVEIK")
1.25
